Data credit: the RNAGym collection of RNA variant scans (doi:10.1073/pnas.2313332121)

B1: TPR 5TU (parent)
chain: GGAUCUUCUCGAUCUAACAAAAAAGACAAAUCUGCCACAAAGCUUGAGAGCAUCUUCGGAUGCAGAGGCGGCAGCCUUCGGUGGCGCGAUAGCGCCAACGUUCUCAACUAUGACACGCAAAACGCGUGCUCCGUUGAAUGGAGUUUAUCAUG

Variants of: B1
Experiment: polymerase ribozyme fitness, log enrichment relative to wild type (log ratio); higher = more active; in vitro selection for triplet polymerase activity
Variants at the floor of the assay were thinned out.
Assignment: determine reported polymerase ribozyme fitness (log ratio) for the given variants.
Reply: number alone, nothing else.

Consider the variant A52G G62A C76U U145A and give its measured polymerase ribozyme fitness (log ratio).
-2.04

Consider the variant G50A U55A and give its measured polymerase ribozyme fitness (log ratio).
-1.34

Consider the variant C57U C69A G84U A121C and give its measured polymerase ribozyme fitness (log ratio).
-2.25

Consider the variant A17G C18U A40C C99G and give its measured polymerase ribozyme fitness (log ratio).
-3.19

Consider the variant U55A U56G G80A and give its measured polymerase ribozyme fitness (log ratio).
-1.37
